- systemUnderTest: Enoyl-acyl-carrier protein reductase (Plasmodium falciparum)
- Sequence (Q965D5 whole entry): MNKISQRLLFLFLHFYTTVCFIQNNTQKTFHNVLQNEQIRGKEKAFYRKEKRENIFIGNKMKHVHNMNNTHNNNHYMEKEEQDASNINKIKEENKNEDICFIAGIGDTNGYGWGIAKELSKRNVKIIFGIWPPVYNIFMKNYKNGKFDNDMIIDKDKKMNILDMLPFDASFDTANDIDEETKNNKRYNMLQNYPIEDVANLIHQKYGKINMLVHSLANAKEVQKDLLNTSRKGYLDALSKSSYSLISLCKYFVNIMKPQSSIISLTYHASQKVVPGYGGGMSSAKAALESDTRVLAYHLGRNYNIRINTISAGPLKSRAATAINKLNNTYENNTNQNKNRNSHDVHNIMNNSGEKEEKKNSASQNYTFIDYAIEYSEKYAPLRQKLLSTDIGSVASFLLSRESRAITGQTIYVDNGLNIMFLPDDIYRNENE
- testName: Inhibition of Plasmodium falciparum ENR in presence of EGCG by dilution assay
pKi: −log10 of the molar value.
endpoint: pKi

1) Oc1cc(Cl)ccc1Oc1ccc(Cl)cc1Cl [TRICLOSAN]
11.72

###

- systemUnderTest: Enoyl-[acyl-carrier-protein] reductase [NADH] FabI (Escherichia coli K-12)
- Sequence (P0AEK4 whole entry): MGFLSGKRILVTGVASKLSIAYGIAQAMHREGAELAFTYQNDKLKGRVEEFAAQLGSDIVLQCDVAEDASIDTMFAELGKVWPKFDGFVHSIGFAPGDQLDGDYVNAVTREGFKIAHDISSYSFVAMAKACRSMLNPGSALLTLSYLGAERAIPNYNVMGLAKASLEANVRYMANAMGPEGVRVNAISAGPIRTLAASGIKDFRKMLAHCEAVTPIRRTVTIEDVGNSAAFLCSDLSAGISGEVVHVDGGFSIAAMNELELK
- testName: Inhibition of Escherichia coli ENR
pIC50: −log10 of the molar value.
Measured pIC50 accompanies every entry in the list below.
endpoint: pIC50

1) O=C(/C=C/c1ccc(O)c(O)c1)c1ccc(O)cc1O
4.52
2) O=C(O[C@@H]1Cc2c(O)cc(O)cc2O[C@@H]1c1ccc(O)c(O)c1)c1cc(O)c(O)c(O)c1 [EPICATECHIN GALLATE]
5.00
3) O=C(O[C@@H]1Cc2c(O)cc(O)cc2O[C@@H]1c1cc(O)c(O)c(O)c1)c1cc(O)c(O)c(O)c1 [EPIGALOCATECHIN GALLATE]
4.82
4) O=c1c(O)c(-c2ccc(O)c(O)c2)oc2cc(O)cc(O)c12
4.70

###

- systemUnderTest: Enoyl-acyl-carrier protein reductase (Plasmodium falciparum, UniProt Q965D5)
- testName: Inhibition of Plasmodium falciparum ENR in presence of ECG
pKi: −log10 of the molar value.
endpoint: pKi

1) Oc1cc(Cl)ccc1Oc1ccc(Cl)cc1Cl [TRICLOSAN]
8.10

###

- systemUnderTest: Enoyl-acyl-carrier protein reductase (Plasmodium falciparum)
- testName: Inhibition of Plasmodium falciparum ENR in presence of EGCG
endpoint: Ki (nM)

1) Oc1cc(Cl)ccc1Oc1ccc(Cl)cc1Cl
1

###

- systemUnderTest: Enoyl-acyl-carrier protein reductase (Plasmodium falciparum, UniProt Q965D5)
- testName: Inhibition of Plasmodium falciparum ENR by fluorescence quenching in presence of butein
pKi: −log10 of the molar value.
endpoint: pKi

1. Oc1cc(Cl)ccc1Oc1ccc(Cl)cc1Cl
7.15

###

- systemUnderTest: Enoyl-acyl-carrier protein reductase (Plasmodium falciparum, UniProt Q965D5)
- Sequence (Q965D5 whole entry): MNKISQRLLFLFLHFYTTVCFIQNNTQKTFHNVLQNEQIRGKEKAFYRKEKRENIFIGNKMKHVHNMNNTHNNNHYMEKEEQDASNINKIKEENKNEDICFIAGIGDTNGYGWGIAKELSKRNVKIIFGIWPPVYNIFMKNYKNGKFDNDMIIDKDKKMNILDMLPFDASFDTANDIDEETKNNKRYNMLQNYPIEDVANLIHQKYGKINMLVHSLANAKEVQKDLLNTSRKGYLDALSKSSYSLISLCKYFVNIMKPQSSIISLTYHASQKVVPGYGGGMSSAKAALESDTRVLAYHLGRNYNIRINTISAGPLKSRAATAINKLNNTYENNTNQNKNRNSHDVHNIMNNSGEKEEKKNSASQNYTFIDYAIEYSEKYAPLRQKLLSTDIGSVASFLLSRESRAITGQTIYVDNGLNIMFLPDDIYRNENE
- testName: Inhibition of Plasmodium falciparum ENR using NADH substrate
pKi: −log10 of the molar value.
The entries below are paired with their reported pKi.
endpoint: pKi

1) O=c1c(O)c(-c2ccc(O)c(O)c2)oc2cc(O)cc(O)c12
5.96
2) O=C(/C=C/c1ccc(O)c(O)c1)c1ccc(O)cc1O
5.26
3) O=C(O[C@@H]1Cc2c(O)cc(O)cc2O[C@@H]1c1cc(O)c(O)c(O)c1)c1cc(O)c(O)c(O)c1 [EPIGALOCATECHIN GALLATE]
6.73
4) O=C(O[C@@H]1Cc2c(O)cc(O)cc2O[C@@H]1c1ccc(O)c(O)c1)c1cc(O)c(O)c(O)c1 [EPICATECHIN GALLATE]
6.54
5) Oc1cc(O)c2c(c1)O[C@H](c1cc(O)c(O)c(O)c1)[C@H](O)C2 [EPIGALLOCATECHIN]
5.43

###

- systemUnderTest: Enoyl-acyl-carrier protein reductase (Plasmodium falciparum)
- Sequence (Q965D5 whole entry): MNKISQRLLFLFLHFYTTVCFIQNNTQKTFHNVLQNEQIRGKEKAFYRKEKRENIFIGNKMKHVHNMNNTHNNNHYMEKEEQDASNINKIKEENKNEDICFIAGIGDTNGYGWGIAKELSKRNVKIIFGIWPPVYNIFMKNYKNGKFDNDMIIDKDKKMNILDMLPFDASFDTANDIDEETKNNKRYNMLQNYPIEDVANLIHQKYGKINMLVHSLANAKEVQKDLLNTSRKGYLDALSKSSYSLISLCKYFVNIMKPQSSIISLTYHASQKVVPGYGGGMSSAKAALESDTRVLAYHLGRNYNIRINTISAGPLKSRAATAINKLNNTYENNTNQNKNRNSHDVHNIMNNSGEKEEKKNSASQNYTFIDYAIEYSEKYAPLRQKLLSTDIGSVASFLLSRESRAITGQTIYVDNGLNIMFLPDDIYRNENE
- testName: Inhibition of Plasmodium falciparum ENR by fluorescence quenching in presence of EGC
pKi: −log10 of the molar value.
endpoint: pKi

1) Oc1cc(Cl)ccc1Oc1ccc(Cl)cc1Cl
7.28

###

- systemUnderTest: UniProt:Q965D5
- Sequence (Q965D5 whole entry): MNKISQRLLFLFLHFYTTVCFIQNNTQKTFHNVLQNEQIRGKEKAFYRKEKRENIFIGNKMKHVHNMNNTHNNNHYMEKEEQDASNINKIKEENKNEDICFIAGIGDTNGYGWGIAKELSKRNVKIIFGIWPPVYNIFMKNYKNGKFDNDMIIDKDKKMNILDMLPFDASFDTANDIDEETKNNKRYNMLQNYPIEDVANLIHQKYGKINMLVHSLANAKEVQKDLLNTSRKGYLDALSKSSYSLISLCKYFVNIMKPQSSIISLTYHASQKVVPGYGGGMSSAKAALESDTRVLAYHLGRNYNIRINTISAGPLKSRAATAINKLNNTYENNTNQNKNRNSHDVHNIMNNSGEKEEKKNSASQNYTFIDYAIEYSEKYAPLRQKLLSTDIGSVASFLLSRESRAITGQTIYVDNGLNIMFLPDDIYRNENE
- testName: Inhibition of Plasmodium falciparum ENR in presence of quercetin
endpoint: Ki (nM)

1) Oc1cc(Cl)ccc1Oc1ccc(Cl)cc1Cl
10

###

- systemUnderTest: Enoyl-acyl-carrier protein reductase (Plasmodium falciparum, UniProt Q965D5)
- Sequence (Q965D5 whole entry): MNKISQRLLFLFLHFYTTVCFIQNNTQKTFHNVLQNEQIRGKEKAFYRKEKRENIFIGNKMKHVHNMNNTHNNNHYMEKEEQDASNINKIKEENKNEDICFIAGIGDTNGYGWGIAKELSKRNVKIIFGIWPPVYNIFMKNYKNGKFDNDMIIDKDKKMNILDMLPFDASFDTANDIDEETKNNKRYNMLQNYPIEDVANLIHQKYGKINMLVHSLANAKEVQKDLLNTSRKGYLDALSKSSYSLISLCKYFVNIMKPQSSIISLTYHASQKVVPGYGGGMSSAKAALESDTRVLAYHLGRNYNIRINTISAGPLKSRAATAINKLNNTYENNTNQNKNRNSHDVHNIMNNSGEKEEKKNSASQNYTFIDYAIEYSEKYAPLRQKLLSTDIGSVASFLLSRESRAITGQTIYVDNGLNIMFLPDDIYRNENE
Recorded IC50 by entry
endpoint: IC50 (µM)

1. Oc1cc(O)c2c(c1)O[C@H](c1cc(O)c(O)c(O)c1)[C@H](O)C2 [EPIGALLOCATECHIN]
7
2. O=C(O[C@@H]1Cc2c(O)cc(O)cc2O[C@@H]1c1cc(O)c(O)c(O)c1)c1cc(O)c(O)c(O)c1 [EPIGALOCATECHIN GALLATE]
0.25
3. O=c1c(O)c(-c2ccc(O)c(O)c2)oc2cc(O)cc(O)c12 [QUERCETIN]
2.5
4. O=C(O[C@@H]1Cc2c(O)cc(O)cc2O[C@@H]1c1ccc(O)c(O)c1)c1cc(O)c(O)c(O)c1 [EPICATECHIN GALLATE]
0.5
5. O=C(/C=C/c1ccc(O)c(O)c1)c1ccc(O)cc1O [BUTEIN]
12.5
